Data provenance: PubChem BioAssay (NCI)

Examples of compounds with documented growth follow.
# Test system: A549/ATCC NSCLC
# measurement_notes: NCI-60 one-dose screen, 48 h (100 = growth as untreated, 0 = no growth, -100 = all killed)
# reported_conditions: 10 µM unless noted
# Method: Growth inhibition of the A549/ATCC human Non-Small Cell Lung tumor cell line is measured as a screen for anti-cancer activity. Cells are grown in 96 well plates and exposed to the test compound for 48 hours. Compounds are tested at a single concentration, which is 10^-5 M for most compounds. The reported endpoint is percent growth (GI% or GIPRCNT), where numbers from 0 - 100% represent growth inhibition, and numbers from -100% - 0 represent cell death. […]
About 83,000 compounds went through this panel and 20% of them were active in at least one assay; those are over-represented in the sample as a whole.

{"columns": ["compound", "growth / %"],
 "data": [
  ["Cn1c(=O)c2c(nc(Cl)n2CCl)n(C)c1=O", 106],
  ["COc1ccc(C2=Nc3c(N)ncnc3NC(c3ccc4c(c3)OCO4)C2)cc1 (centres undefined)", 89.3],
  ["COc1ccc(C(=O)COc2ccc(/C=C3\\Oc4ccccc4C3=O)cc2)cc1", 99],
  ["NS(=O)(=O)c1ccc(-n2nc(C(=O)N/N=C\\c3ccc(F)cc3)cc2-c2ccc(Cl)cc2)cc1", 95.1],
  ["CCN1CCN(c2cc(C)nc(NCc3cc(Nc4ccnc5cc(Cl)ccc45)ccc3F)n2)CC1", 74.6],
  ["O=C(CCCCCCSc1nc(-c2ccccc2)cc(-c2ccc(Cl)cc2)n1)NO", -23],
  ["O=c1[nH]ccc2nc(N3CCC(O)CC3)nc(Nc3ccc(N4CCOCC4)cc3)c12", 29.8],
  ["Cc1c(C(=O)NC(Cc2ccccc2)C(O)C(=O)NCc2ccc(F)cc2)[nH]c2ccccc2c1=O (centres undefined)", 101],
  ["COC(=O)[C@]12CC[C@@H](C)[C@H](C)[C@@H]1C1=CC[C@@H]3[C@@]4(C)C(C=O)=C[C@@](C)(COC(=O)/C=C/c5ccccc5)[C@@H]4[C@H](O)C[C@@]3(C)[C@]1(C)CC2", 3.82],
  ["CCCCN(CCCC)CC(C)(C)C(O)c1ccc(OC)c2ccccc12 (centres undefined)", 63.5],
  ["CN(C)CCNc1nc2ccccc2c2c1c1c(n2Cc2ccccc2)-c2ccccc2C1=O", -73],
  ["COc1ccc(-c2cc(-c3ccc(Nc4nc(Nc5ccc(Cl)cc5)nc(Nc5ccc(Cl)cc5)n4)cc3)nc(N)c2C#N)cc1", 37],
  ["COc1ccc(NC(=O)CSc2nnc(-c3cc(-c4ccccc4)nc4ccccc34)n2-c2ccccc2)cc1", 92.4],
  ["COc1ccc(-c2nc(SCCC(C)C)nc(N/N=C\\c3cccc(Cl)c3)c2C#N)cc1", 59.7],
  ["CCCCC1CCCCN1C(=O)OCC (centres undefined)", 95.1],
  ["CNc1ccc(NC)c2c1C(=O)c1ccccc1C2=O", 100],
  ["C=C(C)[C@@H]1CC=C2c3sc(-c4ccc(C)cc4)nc3C[C@@H](C)[C@]2(C)C1", 95.3],
  ["COc1ccc(S(=O)(=O)NCCNc2nccc(-c3c(-c4cccc(F)c4)nc4sccn34)n2)cc1", 22.5],
  ["Cc1ccc(S(=O)(=O)n2cc(CNc3ccc(N4CCOCC4=O)cc3)c3ccccc32)cc1", 103]
]}

---

# Test system: HCT-116 colon
# measurement_notes: NCI-60 one-dose screen, 48 h
# reported_conditions: 10 µM unless noted
About 83,000 compounds went through this panel and 20% of them were active in at least one assay; those are over-represented in the sample as a whole. Activity calls are given as the source filed them. How the source made its calls: active means growth percent below 10; inactive means the rest.
Outcome codes: y for active, n for inactive

{"columns": ["compound", "assigned_label"],
 "data": [
  ["Nc1ccc2c(c1)c(N)nn2C(=O)Nc1ccc(Cc2ccccc2)cc1", "n"],
  ["COc1nc(N(C)O)nc(N(C)O)n1", "y"],
  ["O=C(COc1ccc(/C=C2\\Oc3ccccc3C2=O)cc1)Nc1nc2ccccc2s1", "n"],
  ["CN1CCN(CCCOc2ccc3nc(Nc4ccc(F)c(F)c4)ccc3c2)CC1", "y"],
  ["COc1ccc(-c2nc(SCCC(C)C)nc(N/N=C\\c3cccc(Cl)c3)c2C#N)cc1", "n"],
  ["CC1=C([Se]CC(OC(=O)[C@@H](CO)NC(=O)OC(C)(C)C)C(=O)NC(C)(C)C)C(=O)c2ccccc2C1=O (stereo not given in full)", "y"],
  ["CNC(=O)c1cc(Oc2cccc3nc(Nc4ccc(F)c(Cl)c4)ccc23)ccn1", "n"],
  ["O=c1[nH]ccc2nc(N3CCC(O)CC3)nc(Nc3ccc(N4CCOCC4)cc3)c12", "n"],
  ["CCCCNC(=O)Oc1ccc2c(=O)c3sc4c(=O)c5ccccc5c(=O)c4c3c(=O)c2c1", "y"],
  ["O=c1[nH][n+](-c2ccc(Cl)cc2)no1", "n"],
  ["Cc1ccc(S(=O)(=O)Oc2cc(OS(=O)(=O)c3ccc(C)cc3)cc(OS(=O)(=O)c3ccc(C)cc3)c2)cc1", "n"],
  ["C=CCn1c(C)nc2cc(Nc3nc(Cl)nc4ccccc34)ccc21", "n"],
  ["COc1ccc2nc(NNC(=O)c3cnccn3)c3cccn3c2c1", "y"],
  ["Clc1cccc(Cl)c1/C=C/c1cc(/C=C/c2c(Cl)cccc2Cl)[nH]n1", "n"],
  ["COc1cccc(-c2nc3sccn3c2-c2ccnc(NCCNS(=O)(=O)c3cccc(Cl)c3)c2)c1", "n"],
  ["COc1cc(/C=C/C(=O)N2CCN(C(=O)c3cc(OC)c(OC)c(OC)c3)CC2)ccc1OCCCN1C(=O)c2cccc3cccc(c23)C1=O", "n"],
  ["N#Cc1c2c(nn(-c3ccccc3)c1=O)C(O)=C([N+](=O)[O-])C(c1ccccc1)C2 (stereo not given)", "n"],
  ["Cc1cc(Cl)nc(NCc2cc(Nc3ccnc4cc(Cl)ccc34)ccc2F)n1", "n"],
  ["Cc1cc(/C=C\\c2ccc3ccccc3[n+]2C)c(O)c2ncccc12", "y"],
  ["OC(c1cccc(-n2ccc(C(F)(F)F)n2)c1)c1cnccc1NC1CCCCCC1 (stereo not given)", "y"]
]}

---

# System: COLO 205 colon
# measurement_notes: NCI-60 one-dose screen, 48 h
# reported_conditions: 10 µM unless noted
Compounds without any hit were thinned out: in the full panel of roughly 83,000, 20% have a hit. The source made the active and inactive calls. Rule for the calls: active = growth percent below 10; inactive = the rest.
Outcome codes: active, inactive

{"columns": ["compound", "assigned_label"],
 "data": [
  ["Cc1cc(C)c2c(-c3nnc(N)s3)cc(=O)oc2c1", "inactive"],
  ["C=C(C)[C@@H]1CC[C@]2(C(=O)NC3CCCCC3)CC[C@]3(C)[C@H](CC[C@@H]4[C@@]5(C)CCCNC(C)(C)[C@@H]5CC[C@]43C)[C@@H]12", "active"],
  ["CN(C)CC1=NC2SC=C(c3ccccc3)C2C(=O)N1CC#N (stereo not given)", "inactive"],
  ["Cn1c(=O)c2c(nc(Cl)n2CCl)n(C)c1=O", "inactive"],
  ["O=c1c2cc(F)ccc2sc2c(NCCCN3CCCC3)nc3ccccc3c12", "inactive"]
]}

---

Examples of compounds with documented growth follow.
# Tested on: UACC-257 melanoma
# measurement_notes: NCI-60 one-dose screen, 48 h (100 = growth as untreated, 0 = no growth, -100 = all killed)
# reported_conditions: 10 µM unless noted
About 83,000 compounds went through this panel and 20% of them were active in at least one assay; those are over-represented in the sample as a whole. Calls of active or inactive are those of the source. The calls were made as follows: active = growth percent below 10; inactive = the rest.
readout: growth

{"columns": ["compound", "tested_system", "result"],
 "data": [
  ["CC(=O)N1C(=S)NC(=O)C1Cn1c(-c2ccccc2)nc2ccccc21 (stereo not given)", "UACC-257 melanoma", "107% (inactive)"],
  ["Cc1ccc2nc3ccccc3c(NCc3ccccc3)c2c1", "UACC-257 melanoma", "56.6% (inactive)"],
  ["O=C(/C=C/c1ccco1)c1ccc(Nc2nc(Nc3ccc(F)cc3)nc(Nc3ccc(Cl)cc3)n2)cc1", "UACC-257 melanoma", "101% (inactive)"],
  ["N#CC1=C(c2ccc(Br)cc2)NC(SCC(=O)c2ccc(Br)cc2)NC1=O (stereo not given)", "UACC-257 melanoma", "103% (inactive)"],
  ["O=C(O)c1ccc2c(c1Cl)C(=O)c1ccccc1C2=O", "UACC-257 melanoma", "109% (inactive)"],
  ["COC1=C(OC)C(=O)C(OC)=C(OC)C1=O", "UACC-257 melanoma", "107% (inactive)"],
  ["Cc1ccc(Cc2cnc(NC(=O)c3ccc4noc(-c5ccccc5)c4c3)s2)cc1", "UACC-257 melanoma", "99.3% (inactive)"],
  ["COc1ccc(C2=Nc3c(N)ncnc3NC(c3ccc4c(c3)OCO4)C2)cc1 (stereo not given)", "UACC-257 melanoma", "116% (inactive)"],
  ["COc1c(CCC[P+](c2ccccc2)(c2ccccc2)c2ccccc2)cc2c(c1OC)OCO2", "UACC-257 melanoma", "-3.96% (active)"],
  ["COc1ccc(-c2[nH]c(=S)n(C(CC3(C)NCC(=O)N3n3c(-c4ccccc4)cc(C)nc3=S)c3ccc(OC)cc3)c(=O)c2Br)cc1 (stereo not given)", "UACC-257 melanoma", "88.9% (inactive)"],
  ["Cc1c(Cl)cc(-n2c(=O)c3ccccc3c3ccccc3c2=O)cc1Cl", "UACC-257 melanoma", "104% (inactive)"],
  ["CCN1C(=O)N(CC)C2Nn3c(s/c(=C4\\C(=O)N(C)c5ccccc54)c3=O)=NC21 (stereo not given)", "UACC-257 melanoma", "61.8% (inactive)"],
  ["O=C1NC(=Nc2ccc(Cl)cc2)S/C1=C\\c1cn(-c2ccccc2)nc1-c1ccccc1", "UACC-257 melanoma", "91.6% (inactive)"],
  ["COC(=O)c1c2c(c[n+]([O-])c1C)C(=O)C=CC2=O", "UACC-257 melanoma", "-35.1% (active)"],
  ["CCN(CC)CCN1CC(O)=C(c2nc(-c3ccc(Cl)cc3)cs2)C1=N", "UACC-257 melanoma", "-38.4% (active)"],
  ["CCN(CC)c1ccc(C(=O)c2ccc(N(CC)CC)cc2)cc1", "UACC-257 melanoma", "76.2% (inactive)"],
  ["CN(c1ccccc1)c1ccc2c(c1)OCCC21CC1Nc1cnccc1C(=O)O (stereo not given)", "UACC-257 melanoma", "77.5% (inactive)"],
  ["N#Cc1c(-c2ccccc2)cc(-c2ccc(Nc3nc(Nc4ccc(F)cc4)nc(Nc4ccc(F)cc4)n3)cc2)nc1N", "UACC-257 melanoma", "104% (inactive)"],
  ["COc1ccc(-c2nc(SCCC(C)C)nc(N/N=C\\c3ccccc3O)c2C#N)cc1", "UACC-257 melanoma", "89.8% (inactive)"],
  ["Cc1cc(NCc2cc(Nc3ccnc4cc(Cl)ccc34)ccc2F)nc(N2CCN(C)CC2)n1", "UACC-257 melanoma", "-59.7% (active)"]
]}
